B1: HDV Ribozyme (parent)
chain: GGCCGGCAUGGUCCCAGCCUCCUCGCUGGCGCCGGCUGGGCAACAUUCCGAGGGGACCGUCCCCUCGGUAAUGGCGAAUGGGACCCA

Variants of: B1
Experiment: self-cleavage, relative activity (ratio to wild type); higher = more cleavage; co-transcriptional
valueKind: self-cleavage

# mutationKey, valueReported
rows = [
    ("G31A G74A", 0.132),
    ("U9C C13A", 0.158),
    ("U12A A45U", 0),
    ("U23G G81A", 0.0426),
    ("G54A C85G", 0.892),
    ("G39C G80C", 0.0845),
    ("G28U G53C", 0.0692),
    ("C36G A51C", 0.0665),
    ("C41A U46A", 0.7),
    ("U12G C21G", 0.0665),
    ("U20C C44U", 0),
    ("C13U A56G", 0.573),
    ("G59C G76C", 1.19),
    ("G39A C57U", 0.665),
    ("A42G C84G", 0.314),
    ("C22U U79A", 0.0923),
    ("A45C U65C", 0.646),
    ("A42G A56U", 0.698),
    ("G25A C75G", 0.102),
    ("C13A C62U", 0.214),
    ("G38C G68C", 0.193),
    ("C41A G54U", 0.862),
]
